test system: OCI-AML-3; experiment: Antiproliferative activity against human OCI-AML3 cells after 72 hrs by MTT assay; format: functional, cell-based; settings: OCI-AML-3, 72 h
measurement-kind: IC50 (nM)

a = COc1cc(/C=C/C(=O)N2CCC=CC2=O)cc(OC)c1OC [PIPLARTINE]
b = COc1cc(/C=C/C(=O)N2CCC=CC2=O)cc(OC)c1OCCCCCCC(=O)NO
Recorded IC50 values differ for a and b ; which one is higher? Please reply using the label of the selected record.
a

* * *

experiment: Antiproliferative activity against human CMS cells after 72 hrs by MTT assay; assay type: functional, cell-based
# pIC50 per entry
Reminder that pIC50 is minus the log10 of a molar concentration.

// solved cases for pIC50 follow
structure-string	measurement-kind	observed-value
O=C(CCCCCCC(=O)Nc1ccccc1)NO	pIC50	5.99
COc1cc(/C=C/C(=O)N2CCC=CC2=O)cc(OC)c1OCCCCCCC(=O)NO	pIC50	6.41

Now consider the entry below.
Write down pIC50 measured for item "COc1cc(/C=C/C(=O)N2CCC=CC2=O)cc(OC)c1OC"
5.51

* * *

system: HL-60; test: Antiproliferative activity against human HL60 cells after 72 hrs by MTT assay; format: functional, cell-based; conditions: HL-60, 72 h
pIC50: −log10 of the molar value.
measurement-kind: pIC50

P = COc1cc(/C=C/C(=O)N2CCC=CC2=O)cc(OC)c1OCCCCCCC(=O)NO
Q = COc1cc(/C=C/C(=O)N2CCC=CC2=O)cc(OC)c1OC
Compare P and Q by numeric pIC50 and name the larger one. Indicate your choice by writing its label.
P
(P: 6.45, Q: 5.75)

* * *

test system: HL-60; assay: Antiproliferative activity against Ara-C resistant human HL60 cells after 72 hrs by MTT assay; assay type: functional, cell-based; conditions: HL-60, 72 h
pIC50: −log10 of the molar value.
measurement-kind: pIC50

P = COc1cc(/C=C/C(=O)N2CCC=CC2=O)cc(OC)c1OCCCCCCC(=O)NO
Q = COc1cc(/C=C/C(=O)N2CCC=CC2=O)cc(OC)c1OC [PIPLARTINE]
Lower value of pIC50 belongs to which: P or Q ? // return label of chosen record
Q
(Q: 5.65, P: 6.16)

* * *

tested on: MDA-MB-231; assay: Antiproliferative activity against human MDA-MB-231 cells after 24 hrs by MTT assay; type: functional, cell-based; details: MDA-MB-231, 24 h
measurement-kind: pIC50
pIC50 field: float, defined as -log10 of concentration (mol/L).

Supply measured pIC50 of "COc1cc(/C=C/C(=O)N2CCC=CC2=O)cc(OC)c1OCCCCCCC(=O)NO" in your reply.
6.42

* * *

experiment: Antiproliferative activity against human CMY cells after 72 hrs by MTT assay; assay type: functional, cell-based
A collection of compounds and their measured IC50
# value in nM; strip the unit string

structure-string	measurement-kind	observed-value
COc1cc(/C=C/C(=O)N2CCC=CC2=O)cc(OC)c1OC	IC50	1620

Next, consider the following compound.
Identify measured IC50 associated with "COc1cc(/C=C/C(=O)N2CCC=CC2=O)cc(OC)c1OCCCCCCC(=O)NO"
185

* * *

species: Homo sapiens; details: at 1 µM
Active and inactive are the calls of the source. The calls are words filed in the database; no cut-off is given here.
measurement-kind: inhibition

Consider the reported inhibition for these compounds:
structure-string	measurement-kind	observed-value
COC(=O)CCCCCCOc1c(OC)cc(/C=C/C(=O)N2CCC=CC2=O)cc1OC	inhibition	inactive
COc1cc(/C=C/C(=O)N2CCCCC2=O)cc(OC)c1OCCCCCCC(=O)NO	inhibition	Active
COc1cc(/C=C/C(=O)N2CCC=CC2=O)cc(OC)c1OCCCCCCC(=O)NO	inhibition	Active
COc1cc(/C=C/C(=O)N2CCC=C(Cl)C2=O)cc(OC)c1OCCCCCCC(=O)NO	inhibition	Active
COc1cc(C(=O)N2CCC=CC2=O)cc(OC)c1OCCCCCCC(=O)NO	inhibition	Active
COc1cc(/C=C/C(=O)N2CCC(C)=CC2=O)cc(OC)c1OCCCCCCC(=O)NO	inhibition	Active

Please give the documented inhibition of "COc1cc(/C=C/C(=O)N2CCC=CC2=O)cc(OC)c1OC"
inactive

Quickly give me recorded inhibition for "COc1cc(C(=O)N2CCC=C(Cl)C2=O)cc(OC)c1OCCCCCCC(=O)NO"
Active

Please indicate inhibition recorded for "COC(=O)CCCCCCOc1c(OC)cc(/C=C/C(=O)N2CCC=C(Cl)C2=O)cc1OC"
inactive

* * *

system: MOLM-13; assay: Antiproliferative activity against human MOLM13 cells harboring wild type p53/FLT3-ITD mutant after 72 hrs by MTT assay; type: functional, cell-based; settings: MOLM-13, 72 h
measurement-kind: IC50 (nM)

P = COc1cc(/C=C/C(=O)N2CCC=CC2=O)cc(OC)c1OC [PIPLARTINE]
Q = COc1cc(/C=C/C(=O)N2CCC=CC2=O)cc(OC)c1OCCCCCCC(=O)NO
Given the listed items, does P or Q have the lesser reported IC50? Give the label under which the chosen entry appears.
Q

* * *

tested on: MCF-10A; assay: Cytotoxicity against human MCF10A cells assessed as decrease in cell viability at 0.5 to 5 uM after 24 hrs by MTT assay; assay type: cell-based
measurement-kind: Activity

Solved entries (count: 5):
structure-string	Activity
COc1cc(/C=C/C(=O)N2CCC=C(Cl)C2=O)cc(OC)c1OCCCCCCC(=O)NO	Toxic
COc1cc(C(=O)N2CCC=C(Cl)C2=O)cc(OC)c1OCCCCCCC(=O)NO	Non-Toxic
COc1cc(C(=O)N2CCC=CC2=O)cc(OC)c1OCCCCCCC(=O)NO	Non-Toxic
O=C(CCCCCCC(=O)Nc1ccccc1)NO	Non-Toxic
COc1cc(/C=C/C(=O)N2CCC=CC2=O)cc(OC)c1OC	Non-Toxic

Next, consider the following compound.
Find the measured Activity of "COc1cc(/C=C/C(=O)N2CCC=CC2=O)cc(OC)c1OCCCCCCC(=O)NO" and report it.
Non-Toxic

The measured values listed here are drawn from ChEMBL document CHEMBL4000155.
